Where do these numbers come from? They come from PubChem BioAssay (NCI).

Tested on: SNB-19 CNS
Test: NCI tumour cell line growth inhibition, 48 h
QUANTITY_KIND: TGI

For the record COc1ccc(-c2cn3ccsc3n2)cc1 , what value of TGI is listed for SNB-19 CNS?
> 100 µM

Give recorded TGI with SNB-19 CNS for the following compound: Cc1cc(C)nc(NS(=O)(=O)c2ccc(Nc3c4ccccc4nc4c(C(=O)Nc5ccc(S(=O)(=O)Nc6cc(C)on6)cc5)cccc34)cc2)n1
52.1 µM

// map CN(C)CCNC(=O)c1cccc(C(=O)Nc2ccccc2)c1[N+](=O)[O-] to recorded TGI (system: SNB-19 CNS)
> 100 µM

What measured TGI is associated with CN1CCC23c4c5ccc(Oc6nnnn6-c6ccccc6)c4OC2c2[nH]c4ccccc4c2CC3(O)C1C5 (stereo not given) on SNB-19 CNS?
22.4 µM

// fetch SNB-19 CNS TGI for C[C@]12CC[C@H]3[C@@H](CCC4=CC(=O)CC[C@@H]43)[C@@H]1CC[C@]2(O)C(N)=O
> 100 µM

Find TGI (SNB-19 CNS) for the entry Cc1nc2ccccc2c(=O)n1NC(=O)c1ccccn1
> 100 µM

# get_value(readout= TGI, system= SNB-19 CNS) for N#Cc1nc(C2OC(COC(=O)c3ccccc3)C(OC(=O)c3ccccc3)C2OC(=O)c2ccccc2)oc1N (stereo not given)
> 100 µM

What measured TGI is associated with CC(C)(C)OC(=O)Cc1ccc2c(ccn2Cc2ccccc2)c1 on SNB-19 CNS?
> 100 µM

Request body: readout TGI, system SNB-19 CNS, query O=C(N/N=C/c1cccc(O)c1O)c1ccccc1 . Return the value.
> 100 µM

Quick check: TGI on SNB-19 CNS, item CC(=O)[CH-]C(=O)c1ccccc1.CC(=O)[CH-]C(=O)c1ccccc1.O=C([O-])c1ccc([O-])cc1.O=C([O-])c1ccc([O-])cc1.[Ti+4] ?
> 100 µM

Can you look up TGI on SNB-19 CNS for COc1ccc(NC(=S)Nc2cc(C)ccn2)cc1 ?
> 100 µM

Requested read-out TGI, target or system SNB-19 CNS, entry O=C(CC(O)(C(F)(F)F)C(F)(F)F)C(c1ccccc1)C(O)(C(F)(F)F)C(F)(F)F (stereo not given)
> 100 µM

Param readout= TGI; system= SNB-19 CNS; entry= CC1(n2nc(-c3ccccc3)n(-c3ccccc3)c2=O)CSC1 ; returns value.
> 100 µM

Query TGI on SNB-19 CNS for COC(=O)C1C2OC(C)(C)OC2CN1S(=O)(=O)c1ccc(C)cc1 (stereo not given)
> 100 µM

Query the reported TGI for SNB-19 CNS; item: Cc1ccc(S(=O)(=O)n2c(-c3ccccc3)c(-c3ccccc3)c3ccccc32)cc1
> 100 µM

Kindly state the measured TGI obtained for COc1ccc2c(c1)C(=O)c1c-2n(CCCn2ccnc2)c(=O)c2ccccc12 with SNB-19 CNS.
> 46.5 µM

Give TGI (SNB-19 CNS) of the following compound: CCC1CN2CCc3cc(OC)c(OC)cc3C2CC1CC1c2cc(OC)c(OC)cc2CCN1C(=O)C(N)Cc1ccccc1 (stereo not given)
6.98 µM

Param readout= TGI; system= SNB-19 CNS; entry= CCOc1cccc(C=Nc2ccccc2SSc2ccccc2N=Cc2cccc(OCC)c2O)c1O ; returns value.
47.4 µM

GET /values?readout=TGI&system=SNB-19 CNS&item= CC(C)CCCC(C)[C@H]1CC[C@H]2n3c(nnc3-c3ccccc3)CCC[C@]12C (stereo not given in full)
28.2 µM

Record O=C(/C=C/c1cccc([N+](=O)[O-])c1)N1CCN(CCOC(c2ccccc2)c2ccccc2)CC1 : what is its TGI with SNB-19 CNS?
> 100 µM
